- study-system: CD73 (Homo sapiens (Human))
- Assay type: biochemical
- condition-parameters: 1 mM NaH2PO4 in enzyme buffer, CD73 0.3 nM, AMP 15 uM
assay-endpoint: IC50 (nM)

1) N#Cc1ccc([C@H]2C[C@@H]2c2cc(-c3c[nH]c(=O)[nH]c3=O)nn3ccnc23)c(F)c1 [Example 279]	1.07

I. N#Cc1cc([C@H]2C[C@@H]2c2cc(-c3c[nH]c(=O)[nH]c3=O)nn3ccnc23)ccc1C(F)(F)F (racemic)
II. O=c1[nH]cc(-c2cc([C@H]3C[C@@H]3c3ccc(OC(F)(F)F)cc3)c3nccn3n2)c(=O)[nH]1 (racemic)
Query block: Hello, I am sorting some records. Could you say if I or II has the smaller IC50 value? Bench note: the answer is the label of the chosen record.
Result block: II

I. O=c1[nH]cc(-c2cc([C@H]3C[C@@H]3c3ccc4c(C(F)(F)F)nn(CC(F)(F)F)c4c3)c3nccn3n2)c(=O)[nH]1
II. CC(C)n1ncc2ccc([C@H]3C[C@@H]3c3cc(-c4c[nH]c(=O)[nH]c4=O)nn4ccnc34)cc21 (racemic) [Example 119]
Query block: When their IC50 values are compared, which is larger, I or II ? In your reply, give the label of the chosen option.
Result block: I

---

- study-system: CD73 (Homo sapiens (Human), UniProt P21589)
- Sequence (P21589 27-574): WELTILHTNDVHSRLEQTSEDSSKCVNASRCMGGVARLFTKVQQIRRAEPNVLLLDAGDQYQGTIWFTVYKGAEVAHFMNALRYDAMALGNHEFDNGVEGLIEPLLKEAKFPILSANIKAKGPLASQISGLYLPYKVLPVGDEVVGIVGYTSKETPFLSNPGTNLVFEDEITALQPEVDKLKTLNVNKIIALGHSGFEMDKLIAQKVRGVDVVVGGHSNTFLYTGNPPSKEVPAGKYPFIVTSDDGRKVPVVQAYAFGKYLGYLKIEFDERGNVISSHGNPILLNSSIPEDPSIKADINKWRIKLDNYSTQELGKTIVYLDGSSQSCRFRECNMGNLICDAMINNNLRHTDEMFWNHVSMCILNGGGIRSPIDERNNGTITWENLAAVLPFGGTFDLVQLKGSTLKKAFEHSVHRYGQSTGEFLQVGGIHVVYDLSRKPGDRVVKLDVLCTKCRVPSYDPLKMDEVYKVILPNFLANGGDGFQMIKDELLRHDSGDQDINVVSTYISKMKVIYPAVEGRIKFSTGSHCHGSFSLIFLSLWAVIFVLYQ
- Assay type: biochemical
- condition-parameters: 1 mM NaH2PO4 in enzyme buffer, CD73 0.3 nM, AMP 15 uM
assay-endpoint: IC50 (nM)

1) N#Cc1ccc(OC2CN(c3cc(-c4c[nH]c(=O)[nH]c4=O)nn4ccnc34)CC2(F)F)cc1 (stereo not shown) [Example 231]	1.62

P. O=c1[nH]cc(-c2cc([C@H]3C[C@@H]3c3cc4c(cn3)c(C(F)(F)F)nn4CC(F)(F)F)c3nccn3n2)c(=O)[nH]1 (racemic) [Example 608]
Q. O=c1[nH]cc(-c2cc(N3CC[C@@H](Oc4ccc(F)cc4)C3)c3nccn3n2)c(=O)[nH]1 [Example 240]
Query block: Record comparison, field IC50: mark the lower of P and Q . Give the chosen item's label as your response.
Result block: Q
(Q: 0.28 nM, P: 2.36 nM)

---

- study-system: CD73 (Homo sapiens (Human), UniProt P21589)
- Format: biochemical
- condition-parameters: 1 mM NaH2PO4 in enzyme buffer, CD73 0.3 nM, AMP 15 uM
pIC50: −log10 of the molar value.
assay-endpoint: pIC50

1) N#Cc1ccc(O[C@H]2CN(c3cc(-c4c[nH]c(=O)[nH]c4=O)nn4ccnc34)CC2(F)F)cc1	9.15

I. CC(C)c1nn(CC(F)(F)F)c2cc([C@H]3C[C@@H]3c3cc(-c4c[nH]c(=O)[nH]c4=O)nn4ccnc34)ccc12 (racemic)
II. O=c1[nH]cc(-c2cc(N3C[C@H](Oc4ccc(OC(F)(F)C(F)(F)F)cn4)C(F)(F)C3)c3nccn3n2)c(=O)[nH]1
Query block: Could you kindly indicate whether I or II has the higher pIC50 value? Please respond with the label that marks your chosen entry.
Result block: I

A. O=c1[nH]cc(-c2cc(N3CC(c4ccc(OC(F)(F)F)cc4)C3)c3nccn3n2)c(=O)[nH]1
B. O=c1[nH]cc(-c2cc([C@H]3C[C@@H]3c3cnc4ccccc4c3)c3nccn3n2)c(=O)[nH]1 (racemic)
Query block: Identify the entry with the larger pIC50. Options: A and B Answer by quoting the chosen item's label.
Result block: B
(B: 8.67, A: 6.76)

---

- study-system: CD73 (Homo sapiens (Human))
- assay-remarks: MDA-MB-231 Cell Based CD73 Activity Assay (DMEM)
- condition-parameters: MDA-MB-231-GFP cells, DMEM medium with 10% human plasma, 200 uM AMP
assay-endpoint: EC50 (nM)

1. O=c1[nH]cc(-c2cc([C@H]3C[C@@H]3c3cc(C(F)(F)F)c4ncccc4c3)c3ncc(F)n3n2)c(=O)[nH]1	22.7
2. O=c1[nH]cc(-c2cc(NCC(F)(F)F)c3nccn3n2)c(=O)[nH]1	383
3. CC(=O)N1CCC12CCN(c1cc(-c3c[nH]c(=O)[nH]c3=O)nn3ccnc13)C2 (centres unmarked)	57

I. Cn1ccc(-c2cc(-c3c[nH]c(=O)[nH]c3=O)nn3ccnc23)n1
II. COC(=O)c1ccc(C2CCN(c3cc(-c4c[nH]c(=O)[nH]c4=O)nn4ccnc34)C2)cc1 (centres unmarked)
Query block: Determine, for I and II , which has the greater value of EC50. Field: selected label. Fill in the label of the entry you choose.
Result block: I

---

- study-system: UniProtKB P21589
- assay-remarks: MDA-MB-231 Cell Based CD73 Activity Assay (DMEM)
- condition-parameters: MDA-MB-231-GFP cells, DMEM medium with 10% human plasma, 200 uM AMP
- Experimental: MDA-MB-231 Cell Based CD73 Activity Assay (DMEM) MDA-MB-231-GFP cells were seeded in 384-well plates (Greiner 781946) at a density of 3000 cells per well in 50 μL of DMEM medium with 10% HP (human plasma). Cells were plated into assay plate with compounds pre-spotted, for an overnight compound treatment. 50 uL of 400 uM AMP (final concentration will be 200 uM) was added using Bio-tek dispenser. Plates were incubated for 100 mins. […] The samples were analyzed using Rapid fire.
pEC50: −log10 of the molar value.
assay-endpoint: pEC50

1. O=c1[nH]cc(-c2cc(N3CCC4(CCC4)C3)c3nccn3n2)c(=O)[nH]1	7.95

1. O=C(CC1CN(c2cc(-c3c[nH]c(=O)[nH]c3=O)nn3ccnc23)CC1(F)F)NC1(C(F)(F)F)CC1 (stereo not drawn)
2. O=c1[nH]cc(-c2cc(NCCc3ccc(Cl)cc3)c3nccn3n2)c(=O)[nH]1
Query block: Please let me know which one, 1 or 2 , has a lower measured pEC50 value. Record your answer as the label of the chosen record.
Result block: 2
(2: 6.25, 1: 8.10)

P. O=c1[nH]cc(-c2cc(N3CC(F)(CO)C3)c3nccn3n2)c(=O)[nH]1
Q. N#Cc1cc(F)c([C@H]2C[C@@H]2c2cc(-c3c[nH]c(=O)[nH]c3=O)nn3ncnc23)c(F)c1
R. O=c1[nH]cc(-c2cc([C@H]3C[C@@H]3c3cc(OCC(F)(F)F)c(Cl)cn3)c3nccn3n2)c(=O)[nH]1 (racemic)
Query block: Sort (3 compounds) by pEC50: min first. Answer format: list of labels, ordered as asked.
Result block: P, Q, R

a. O=c1[nH]cc(-c2cc(OCC(F)(F)CO)c3nccn3n2)c(=O)[nH]1
b. O=c1[nH]cc(-c2cc(N3C[C@@H](Oc4cc(C(F)(F)F)ccn4)C(F)(F)C3)c3nccn3n2)c(=O)[nH]1
c. O=c1[nH]cc(-c2cc([C@H]3C[C@@H]3c3ccc4c(cnn4CC(F)(F)F)c3)c3ncnn3n2)c(=O)[nH]1
Query block: # desc sort on pEC50 across 3 compounds Write out the labels following the order that was asked for.
Result block: c, b, a

---

- study-system: CD73 (Homo sapiens (Human), UniProt P21589)
- assay-remarks: MDA-MB-231 Cell Based CD73 Activity Assay
- condition-parameters: MDA-MB-231-GFP cells, RPMI medium with 10% human plasma, 200 uM AMP
pEC50: −log10 of the molar value.
assay-endpoint: pEC50

Example results:
1. N#Cc1cnc2c(C3CCC(F)(F)CC3)cc(-c3c[nH]c(=O)[nH]c3=O)nn12	5.35
2. O=c1[nH]cc(-c2cc([C@H]3C[C@@H]3c3ccc(C(F)(F)F)c(F)c3)c3nccn3n2)c(=O)[nH]1 (mixture of isomers)	7.56
3. CC1(C)CCN(c2cc(-c3c[nH]c(=O)[nH]c3=O)nn3ccnc23)C1	7.91
4. O=c1[nH]cc(-c2cc([C@H]3C[C@@H]3c3ccc(F)cc3)c3nc(C4CC4)cn3n2)c(=O)[nH]1 (racemic)	7.66

A. O=c1[nH]cc(-c2cc(C3CC3)c3nc(-c4ccccn4)cn3n2)c(=O)[nH]1
B. Cc1cnc2c(C3CCC(F)(F)CC3)cc(-c3c[nH]c(=O)[nH]c3=O)nn12
C. O=c1[nH]cc(-c2cc([C@H]3C[C@@H]3c3cc(F)ccc3F)c3nccn3n2)c(=O)[nH]1 (racemic)
Query block: Order the records, beginning with the lowest pEC50 and ending with the highest. Respond with the label ranking, as requested.
Result block: B, A, C
(B: 5.48, A: 7.35, C: 8.17)

---

- study-system: CD73 (Homo sapiens (Human), UniProt P21589)
- assay-remarks: MDA-MB-231 Cell Based CD73 Activity Assay (DMEM)
- condition-parameters: MDA-MB-231-GFP cells, DMEM medium with 10% human plasma, 200 uM AMP
assay-endpoint: EC50 (nM)

These recorded examples may help you get a feel for the data.
1. O=C(OC1CN(c2cc(-c3c[nH]c(=O)[nH]c3=O)nn3ccnc23)CC1(F)F)N1CC(F)(F)C1 (stereo not drawn) [Example 536]	5.05
2. O=c1[nH]cc(-c2cc([C@H]3C[C@@H]3c3ccc(C(F)(F)F)cc3)c3nccn3n2)c(=O)[nH]1 [Example 554]	12
3. O=c1[nH]cc(-c2cc(N3CCCC3)c3nccn3n2)c(=O)[nH]1 [Example 9]	58.8

a. O=c1[nH]cc(-c2cc(N3CC(C4CC4(F)F)C3)c3nccn3n2)c(=O)[nH]1 (stereo not drawn) [Example 400]
b. O=C(OCC(F)(F)F)OCC(F)(F)COc1cc(-c2c[nH]c(=O)[nH]c2=O)nn2ccnc12 [Example 696]
Query block: Consider entries a and b . Which has the numerically lower EC50? Reply with the label of the item you choose.
Result block: b
(b: 105 nM, a: 547 nM)

A. O=c1[nH]cc(-c2cc([C@H]3C[C@@H]3c3cc4c(cn3)c(F)cn4CC(F)(F)F)c3nccn3n2)c(=O)[nH]1 [Example 706]
B. O=c1[nH]cc(-c2cc([C@H]3C[C@@H]3c3ccc(C(F)F)cc3)c3nccn3n2)c(=O)[nH]1 [Example 418]
C. CC1(C)CN(c2cc(-c3c[nH]c(=O)[nH]c3=O)nn3ccnc23)CC(F)(F)C1 [Example 320]
D. O=c1[nH]cc(-c2cc(OCCc3ccccc3)c3nccn3n2)c(=O)[nH]1 [Example 673]
E. O=c1[nH]cc(-c2cc(N3CC4CCC4(F)C3)c3nccn3n2)c(=O)[nH]1 (stereo not drawn) [Example 478]
Query block: Output the entries ranked by EC50 from maximum down to minimum. Form field (ranking): labels in requested order.
Result block: C, E, D, B, A

I. CC(F)(F)COc1cc(-c2c[nH]c(=O)[nH]c2=O)nn2ccnc12 [Example 677]
II. O=c1[nH]cc(-c2cc([C@H]3C[C@@H]3c3ccc4c(C(F)(F)F)nn(CC(F)(F)F)c4c3)c3nccn3n2)c(=O)[nH]1 [Example 607]
III. O=c1[nH]cc(-c2cc([C@H]3C[C@@H]3c3ccc4c(C(F)(F)F)cn(CC(F)(F)F)c4n3)c3nccn3n2)c(=O)[nH]1 [Example 701]
IV. O=c1[nH]cc(-c2cc(N3CC[C@@H](OC(F)(F)F)C3)c3ncnn3n2)c(=O)[nH]1 [Example 429]
V. CC(COc1cc(-c2c[nH]c(=O)[nH]c2=O)nn2ccnc12)c1ccccc1 (stereo not drawn) [Example 674]
Query block: I would appreciate it if you could sort these 5 compounds by EC50, starting from the smallest number. Please list the labels according to the requested order.
Result block: II, III, IV, I, V

Data provenance: patent US20240043427A1
